Reference for the values: patent US20260078130A1

target: human enzyme NAMPT (full length) (Homo sapiens, UniProt P43490); construct: human enzyme NAMPT (full length); experiment: NMN fluorescence biochemical assay (stimulation of NMN synthesis by NAMPT); settings: fold change of maximal activation compared to DMSO
Sequence (P43490 whole entry): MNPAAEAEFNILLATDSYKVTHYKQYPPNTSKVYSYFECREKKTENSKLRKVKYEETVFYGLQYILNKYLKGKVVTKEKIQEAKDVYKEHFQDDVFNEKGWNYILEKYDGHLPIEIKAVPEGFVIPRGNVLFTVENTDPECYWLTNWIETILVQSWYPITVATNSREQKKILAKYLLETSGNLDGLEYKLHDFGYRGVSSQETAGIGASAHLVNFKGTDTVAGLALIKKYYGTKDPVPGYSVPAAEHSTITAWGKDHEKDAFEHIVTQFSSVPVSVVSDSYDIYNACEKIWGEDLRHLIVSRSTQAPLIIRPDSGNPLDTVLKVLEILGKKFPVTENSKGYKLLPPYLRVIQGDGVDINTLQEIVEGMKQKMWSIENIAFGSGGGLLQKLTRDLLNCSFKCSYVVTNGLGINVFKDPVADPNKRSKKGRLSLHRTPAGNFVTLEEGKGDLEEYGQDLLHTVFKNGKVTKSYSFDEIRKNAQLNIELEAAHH
Reported endpoint: Enzymatic Emax

Examples from the recorded data:
[
  {
    "Compound": "COc1ccc(CN2C(=O)c3ccc(C4CC4)cc3C2Cc2c(C)ncnc2C#N)cn1 (stereo not drawn) [Compound 640]",
    "Target": "human enzyme NAMPT (full length) (Homo sapiens, UniProt P43490)",
    "Obs value": "A (A>3)"
  },
  {
    "Compound": "Cn1ncc(Cl)c1CC1c2cc(CN3CCCC3)ccc2C(=O)N1CC1CC2(CNC(=O)O2)C1 (stereo not drawn) [Compound 462]",
    "Target": "human enzyme NAMPT (full length) (Homo sapiens, UniProt P43490)",
    "Obs value": "C (2≥C)"
  },
  {
    "Compound": "N#Cc1cccc(CC2c3ccccc3C(=O)N2Cc2ccc3[nH]c(=O)oc3c2)c1F (stereo not drawn) [Compound 204]",
    "Target": "human enzyme NAMPT (full length) (Homo sapiens, UniProt P43490)",
    "Obs value": "B (3≥B>2)"
  },
  {
    "Compound": "Cn1ncc(Cl)c1CC1c2cccc(F)c2C(=O)N1CC1CC2(CNC(=O)O2)C1 (stereo not drawn) [Compound 309]",
    "Target": "human enzyme NAMPT (full length) (Homo sapiens, UniProt P43490)",
    "Obs value": "B (3≥B>2)"
  },
  {
    "Compound": "Cn1ncc(Cl)c1CC1c2cc(C3COC3)ccc2C(=O)N1CC1CC2(CNC(=O)O2)C1 (stereo not drawn) [Compound 473]",
    "Target": "human enzyme NAMPT (full length) (Homo sapiens, UniProt P43490)",
    "Obs value": "B (3≥B>2)"
  }
]

Request: Name the recorded Enzymatic Emax for O=C1c2ccccc2C(Cc2ncccc2Br)N1Cc1ccc2[nH]c(Cl)nc2c1 (stereo not drawn) [Compound 255] .
Result: A (A>3)

Request: Name the recorded Enzymatic Emax for Cn1ncc(Cl)c1CC1c2cc(F)ccc2S(=O)(=O)N1CC1CC2(CNC(=O)O2)C1 (stereo not drawn) [Compound 563] .
Result: A (A>3)

Request: Name the recorded Enzymatic Emax for CSc1ccc(CN2C(=O)c3ccccc3C2Cc2c(Cl)cnn2C)cc1 (stereo not drawn) [Compound 542] .
Result: B (3≥B>2)

Request: Name the recorded Enzymatic Emax for CC1c2ccccc2C(=O)N1Cc1ccc(NC(=O)NCc2ccncc2)cc1 (stereo not drawn) [Compound 291] .
Result: C (2≥C)

Request: Name the recorded Enzymatic Emax for Cc1n[nH]cc1C#CCN1C(=O)c2ccccc2C1Cc1c(Cl)cnn1C (stereo not drawn) [Compound 478] .
Result: B (3≥B>2)

---

target: human enzyme NAMPT (full length) (Homo sapiens, UniProt P43490); construct: human enzyme NAMPT (full length); experiment: NMN fluorescence biochemical assay (stimulation of NMN synthesis by NAMPT); conditions: NMN synthesis by purified human NAMPT (100 nM); concentration giving half-maximal activation; read-out: Enzymatic EC50
pEC50: −log10 of the molar value.
Measured pEC50 accompanies every entry in the list below.

Request: Kindly state the measured pEC50 obtained for N#CCC1c2ccccc2C(=O)N1Cc1ccc(O)cc1 (centres unmarked) with human enzyme NAMPT (full length) (Homo sapiens, UniProt P43490).
Result: ≤ 5.30

Request: Kindly state the measured pEC50 obtained for O=C1c2ccccc2C(Cc2ncccc2Br)N1Cc1cc2nn[nH]c2cc1F (centres unmarked) with human enzyme NAMPT (full length) (Homo sapiens, UniProt P43490).
Result: 5.30 to 6.30

Request: Kindly state the measured pEC50 obtained for CC(=O)Nc1ccc(CN2C(=O)c3ccccc3C2C)cc1 (centres unmarked) with human enzyme NAMPT (full length) (Homo sapiens, UniProt P43490).
Result: ≤ 5.30

---

target: human enzyme NAMPT (full length) (Homo sapiens); construct: human enzyme NAMPT (full length); test: NMN fluorescence biochemical assay (stimulation of NMN synthesis by NAMPT); conditions: fold change of maximal activation compared to DMSO

[
  {
    "Compound": "Cc1ccc2c(c1)C(C)N(Cc1ccc3[nH]c(=O)oc3c1)C2=O (single isomer, unassigned)",
    "Enzymatic Emax": "A (A>3)"
  },
  {
    "Compound": "O=C1c2ccccc2C(Cc2ncccc2Br)N1Cc1ccc2[nH]c(O)nc2c1 (centres unmarked)",
    "Enzymatic Emax": "C (2≥C)"
  },
  {
    "Compound": "Cn1cc(C#CCN2C(=O)c3ccccc3C2Cc2c(Cl)cnn2C)cn1 (centres unmarked)",
    "Enzymatic Emax": "C (2≥C)"
  },
  {
    "Compound": "Cn1ncc(Cl)c1CC1c2ccccc2C(=O)N1Cc1ccc2[nH]c(=O)oc2c1 (centres unmarked)",
    "Enzymatic Emax": "A (A>3)"
  }
]

---

tested on: endogenous NAMPT in U2OS cells; assay: Cellular NAD+ modulation assay (NAD/NADH-Glo, U2OS cells); assay type: cell-based; conditions: Homo sapiens, 24 hours incubation, cellular NAD+
Reported endpoint: EC50

Examples from the recorded data:
[
  {
    "Molecule": "Cn1ncc(Cl)c1CC1c2ccc(Cl)cc2C(=O)N1Cc1ccc2[nH]nnc2c1 (stereo not drawn)",
    "Obs value": "< 0.5 µM"
  },
  {
    "Molecule": "COc1ccc(CN2C(=O)c3ccccc3C2Cc2c(C#N)ccnc2C#N)cc1 (stereo not drawn)",
    "Obs value": "0.5 to 5 µM"
  },
  {
    "Molecule": "Cn1ncc(Cl)c1CC1c2ccccc2C(=O)N1CC#Cc1cn[nH]c1 (stereo not drawn)",
    "Obs value": "< 0.5 µM"
  }
]

Request: Name the recorded EC50 for O=C1c2ccccc2C(Cc2ncccc2Br)N1CCc1cn[nH]c1 (stereo not drawn) .
Result: 0.5 to 5 µM

Request: Name the recorded EC50 for Cn1ncc(Cl)c1CC1c2ccccc2C(=O)N1Cc1c[nH]nn1 (stereo not drawn) .
Result: < 0.5 µM

Request: Name the recorded EC50 for Cn1ncc(Cl)c1CC1c2cc(CN3CCOCC3)ccc2C(=O)N1CC1CC2(CNC(=O)O2)C1 (stereo not drawn) .
Result: 0.5 to 5 µM

Request: Name the recorded EC50 for COc1ccc(CN2C(=O)c3ccccc3C2Cc2ncccc2Br)cc1 (stereo not drawn) .
Result: < 0.5 µM

Request: Name the recorded EC50 for COc1ccc(CN2C(=O)c3ccccc3C2(C)Cc2c(Cl)cnn2C)cn1 (stereo not drawn) .
Result: 0.5 to 5 µM

---

molecular target: human enzyme NAMPT (full length) (Homo sapiens, UniProt P43490); construct: human enzyme NAMPT (full length); assay: NMN fluorescence biochemical assay (stimulation of NMN synthesis by NAMPT); conditions: fold change of maximal activation compared to DMSO
Reported endpoint: Enzymatic Emax

Examples from the recorded data:
[
  {
    "Compound": "O=C1c2cccc(Nc3ccccc3)c2C(=O)N1Cc1ccc(O)cc1 [Compound 17]",
    "Enzymatic Emax": "B (3≥B>2)"
  },
  {
    "Compound": "O=C1c2ccccc2C(Cc2ncccc2Br)N1Cc1ccc2c(c1)nnn2O (centres unmarked) [Compound 288]",
    "Enzymatic Emax": "C (2≥C)"
  },
  {
    "Compound": "N#Cc1ccnc(C#N)c1CC1c2ccccc2C(=O)N1Cc1ccc2[nH]nnc2c1 (centres unmarked) [Compound 353]",
    "Enzymatic Emax": "A (A>3)"
  },
  {
    "Compound": "NC(=O)c1ccc2c(c1)C(=O)N(Cc1ccc(O)cc1)C2=O [Compound 38]",
    "Enzymatic Emax": "A (A>3)"
  },
  {
    "Compound": "Nc1ccccc1CC1c2ccccc2C(=O)N1Cc1ccc2[nH]c(=O)oc2c1 (centres unmarked) [Compound 208]",
    "Enzymatic Emax": "B (3≥B>2)"
  }
]

Next item in the queue.
Request: Name the recorded Enzymatic Emax for Cn1c(CC2c3ccccc3C(=O)N2CC2CC3(CNC(=O)O3)C2)c(Cl)ccc1=O (centres unmarked) [Compound 467] .
Result: B (3≥B>2)

---

target: human enzyme NAMPT (full length) (Homo sapiens); construct: human enzyme NAMPT (full length); test: NMN fluorescence biochemical assay (stimulation of NMN synthesis by NAMPT); details: NMN synthesis by purified human NAMPT (100 nM); concentration giving half-maximal activation; read-out: Enzymatic EC50
Reported endpoint: EC50

[
  {
    "Compound": "CC1c2cc(CN3CC4(COC4)C3)ccc2C(=O)N1Cc1ccc2[nH]c(=O)oc2c1 (single isomer, unassigned) [Compound 187]",
    "EC50": "0.5 to 5 µM"
  },
  {
    "Compound": "O=C1c2ccccc2C(C(F)(F)c2ccccc2)N1Cc1ccc2[nH]c(=O)oc2c1 (centres unmarked) [Compound 306]",
    "EC50": "≥ 5 µM"
  },
  {
    "Compound": "Cc1ocnc1CC1c2ccccc2C(=O)N1Cc1ccc2[nH]c(=O)oc2c1 (centres unmarked) [Compound 231]",
    "EC50": "≥ 5 µM"
  },
  {
    "Compound": "CC1c2cc(CN3CCOCC3)ccc2C(=O)N1Cc1ccc2[nH]c(=O)oc2c1 (centres unmarked) [Compound 143]",
    "EC50": "≥ 5 µM"
  },
  {
    "Compound": "CC1(C)c2ccccc2C(=O)N1Cc1ccc2[nH]c(=O)oc2c1 [Compound 52]",
    "EC50": "≥ 5 µM"
  }
]

Request: Name the recorded EC50 for O=C1c2ccc(N3CCCC3)cc2CN1Cc1ccc2[nH]c(=O)oc2c1 [Compound 300] .
Result: ≥ 5 µM

Request: Name the recorded EC50 for Cn1ncc(Cl)c1CC1c2cc(C3CC3)ccc2C(=O)N1CC1CC2(CNC(=O)O2)C1 (centres unmarked) [Compound 311] .
Result: 0.5 to 5 µM

Request: Name the recorded EC50 for O=C1c2ccccc2C(Cc2ncccc2Br)N1Cc1ccc2[nH]cnc2c1 (centres unmarked) [Compound 268] .
Result: 0.5 to 5 µM

Request: Name the recorded EC50 for O=C1c2cccc(Nc3ccccc3)c2C(=O)N1Cc1ccc(O)cc1 [Compound 17] .
Result: 0.5 to 5 µM

Request: Name the recorded EC50 for N#Cc1ccncc1CC1c2ccccc2C(=O)N1Cc1ccc2[nH]c(=O)oc2c1 (centres unmarked) [Compound 203] .
Result: 0.5 to 5 µM

Request: Name the recorded EC50 for O=C1c2ccncc2CN1Cc1ccc(O)cc1 [Compound 43] .
Result: ≥ 5 µM
